# Substrate: Nc1nc2nc[nH]c2c(=O)[nH]1
# assay.overview: purified protein
# Format: biochemical, Zymomonas mobilis
# condition.label: 15 µM E. coli tRNA(Tyr), 200 mM HEPES pH 7.3, 20 mM MgCl2, 37°C, labelled compound
measured.metric: Km (µM)
Number only, in µM; omit the unit.

Find the measured Km of Z. mobilis Tgt ("wild type" Tgt = Tgt(Tyr106Phe)) (Zymomonas mobilis subsp. mobilis ZM4 = ATCC 31821; V233G/Y106F) (protein, recombinant from pET9d-ZM-Y106F in E. coli BL21(DE3)/pLysS, purified; homodimer; all variants including "wild type" carry Tyr106Phe) VEATAQETDRPRFSFSIAAREGKARTGTIEMKRGVIRTPAFMPVGTAATVKALKPETVRATGADIILGNTYHLMLRPGAERIAKLGGLHSFMGWDRPILTDSGGFQVMSLSSLTKQSEEGVTFKSHLDGSRHMLSPERSIEIQHLLGSDIVMAFDECTPYPATPSRAASSMERSMRWAKRSRDAFDSRKEQAENAALFGIQQGSVFENLRQQSADALAEIGFDGYAVGGLAGGEGQDEMFRVLDFSVPMLPDDKPHYLMGVGKPDDIVGAVERGIDMFDCVLPTRSGRNGQAFTWDGPINIRNARFSEDLTPLDSECHCAVCQKWSRAYIHHLIRAGEILGAMLMTEHNIAFYQQLMQKIRDSISEGRFSQFAQDFRARYFARNS and report it.
1.0
